Data credit: ChEMBL document CHEMBL2390823

Experiment: Cmax in rat at 5 mg/kg, po
Assay type: ADME, organism-based
Design: dose 5 mg/kg, route oral
Details: in vivo
Below, each of the molecules is paired with its reported Cmax value.
Note: unit ng/mL is implicit; provide only the numeric part.

Recorded Cmax, per entry:
COc1c(-c2ccc3c(CNS(C)(=O)=O)csc3c2)cc(-n2ccc(=O)[nH]c2=O)cc1C(C)(C)C | 1410
COc1c(-c2ccc3c(c2)CC=C3CNS(C)(=O)=O)cc(-n2ccc(=O)[nH]c2=O)cc1C(C)(C)C | 660
COc1c(-c2ccc3c(c2)CC/C3=N\NS(C)(=O)=O)cc(-n2ccc(=O)[nH]c2=O)cc1C(C)(C)C | 120
COc1c(-c2ccc3c(c2)CCC3CNS(C)(=O)=O)cc(-n2ccc(=O)[nH]c2=O)cc1C(C)(C)C (stereo not given) | 2360

Lab note: next molecule to report on.
Need Cmax of COc1c(-c2ccc3c(c2)CCC3(C)CNS(C)(=O)=O)cc(-n2ccc(=O)[nH]c2=O)cc1C(C)(C)C (stereo not given) , thanks.
1010

* * *

Below, each of the molecules is paired with its reported EC50 value.
Test system: Hepatitis C virus
Experiment: Antiviral activity against Hepatitis C virus genotype 1b infected in human HuH7 cells in presence of 40% human plasma
Type: functional, organism-based, Hepacivirus hominis
Settings: Huh-7, Plasma
Note: unit µM is implicit; provide only the numeric part.

COc1c(C(=O)Nc2ccc(NS(C)(=O)=O)cc2)cc(N2CCC(=O)NC2=O)cc1C(C)(C)C | 0.018

Lab note: next molecule to report on.
Need EC50 of `COc1c(-c2ccc3c(c2)CC=C3CNS(C)(=O)=O)cc(-n2ccc(=O)[nH]c2=O)cc1C(C)(C)C` , thanks.
0.022

* * *

Experiment: AUC (0 to infinity) in rat at 5 mg/kg, po
Assay type: ADME, organism-based, Plasma
Design: dose 5 mg/kg, route oral, time infinity
Settings: plasma
readout-type: AUC(0-inf) (ng·h/mL)
Note: unit ng·h/mL is implicit; provide only the numeric part.

Recorded AUC(0-inf), per entry:
COc1c(-c2ccc3c(CNS(C)(=O)=O)csc3c2)cc(-n2ccc(=O)[nH]c2=O)cc1C(C)(C)C | 9300
COc1c(-c2ccc3c(c2)CC/C3=N\NS(C)(=O)=O)cc(-n2ccc(=O)[nH]c2=O)cc1C(C)(C)C | 880
COc1c(-c2ccc3c(c2)CCC3CNS(C)(=O)=O)cc(-n2ccc(=O)[nH]c2=O)cc1C(C)(C)C (stereo not given) | 13500
COc1c(-c2ccc3c(c2)CC=C3CNS(C)(=O)=O)cc(-n2ccc(=O)[nH]c2=O)cc1C(C)(C)C | 7200

Need AUC(0-inf) of COc1c(-c2ccc3c(c2)CCC3(C)CNS(C)(=O)=O)cc(-n2ccc(=O)[nH]c2=O)cc1C(C)(C)C (stereo not given) , thanks.
5100

* * *

Test: Tmax in rat at 5 mg/kg, po
Type: ADME, organism-based
Set-up: dose 5 mg/kg, route oral
Conditions: in vivo
Below, each of the molecules is paired with its reported log10 Tmax value.
Lab note - Tmax converted to log10 from values in min.

Recorded log10 Tmax, per entry:
COc1c(-c2ccc3c(c2)CC=C3CNS(C)(=O)=O)cc(-n2ccc(=O)[nH]c2=O)cc1C(C)(C)C | 2.57
COc1c(-c2ccc3c(c2)CCC3CNS(C)(=O)=O)cc(-n2ccc(=O)[nH]c2=O)cc1C(C)(C)C (stereo not given) | 1.30
COc1c(-c2ccc3c(CNS(C)(=O)=O)csc3c2)cc(-n2ccc(=O)[nH]c2=O)cc1C(C)(C)C | 1.48
COc1c(-c2ccc3c(c2)CCC3(C)CNS(C)(=O)=O)cc(-n2ccc(=O)[nH]c2=O)cc1C(C)(C)C (stereo not given) | 1.18

Need log10 Tmax of `COc1c(-c2ccc3c(c2)CC/C3=N\NS(C)(=O)=O)cc(-n2ccc(=O)[nH]c2=O)cc1C(C)(C)C` , thanks.
2.18

* * *

Below, each of the compounds is paired with its reported half-life value.
Assay: Half life in rat at 5 mg/kg, po
Format: ADME, organism-based
Design: dose 5 mg/kg, route oral
Conditions: in vivo
Note: unit h is implicit; provide only the numeric part.

COc1c(-c2ccc3c(c2)CCC3CNS(C)(=O)=O)cc(-n2ccc(=O)[nH]c2=O)cc1C(C)(C)C (stereo not given) | 2.3
COc1c(-c2ccc3c(c2)CCC3(C)CNS(C)(=O)=O)cc(-n2ccc(=O)[nH]c2=O)cc1C(C)(C)C (stereo not given) | 2.4
COc1c(-c2ccc3c(c2)CC=C3CNS(C)(=O)=O)cc(-n2ccc(=O)[nH]c2=O)cc1C(C)(C)C | 3
COc1c(-c2ccc3c(c2)CC/C3=N\NS(C)(=O)=O)cc(-n2ccc(=O)[nH]c2=O)cc1C(C)(C)C | 3

Lab note: next compound to report on.
Need half-life of `COc1c(-c2ccc3c(CNS(C)(=O)=O)csc3c2)cc(-n2ccc(=O)[nH]c2=O)cc1C(C)(C)C` , thanks.
3.2

* * *

Below, each of the molecules is paired with its reported IC50 value.
Assay: Inhibition of Hepatitis C virus genotype 1a NS5B polymerase
Design: species or system Hepatitis C virus subtype 1a
Note: unit nM is implicit; provide only the numeric part.

Recorded IC50, per entry:
COc1c(-c2ccc3c(c2)CC=C3CNS(C)(=O)=O)cc(-n2ccc(=O)[nH]c2=O)cc1C(C)(C)C | 6
COc1c(-c2ccc3c(CNS(C)(=O)=O)coc3c2)cc(-n2ccc(=O)[nH]c2=O)cc1C(C)(C)C | 9
COc1c(C(=O)Nc2ccc(NS(C)(=O)=O)cc2)cc(N2CCC(=O)NC2=O)cc1C(C)(C)C | 11
COc1c(-c2ccc3c(c2)CCC3(C)CNS(C)(=O)=O)cc(-n2ccc(=O)[nH]c2=O)cc1C(C)(C)C (stereo unspecified) | 16
COc1c(-c2ccc3c(c2)CCC3CNS(C)(=O)=O)cc(-n2ccc(=O)[nH]c2=O)cc1C(C)(C)C (stereo unspecified) | 8

Lab note: next molecule to report on.
Need IC50 of `COc1c(-c2ccc3c(c2)CC=C3CN(C)S(C)(=O)=O)cc(-n2ccc(=O)[nH]c2=O)cc1C(C)(C)C` , thanks.
7
